Just for reference, PubChem BioAssay (NCI) is where these values come from.

System: KM12 colon
measurement.description: NCI-60 one-dose screen, 48 h
condition: 10 µM unless noted
This is part of a sample that, as a whole, favours compounds with a hit. Of some 83,000 tested, about 20% had one in any assay. Activity calls are given as the source filed them. How the source made its calls: active means growth percent below 10; inactive means the rest.
Entry note: the call must match one of yes = active, no = inactive

Illustrative cases are given below, each with its answer.
Cn1cc(-c2ccc3ncc(-c4ccc(CC(=O)Nc5cc(C(C)(C)C)nn5C)cc4)cc3c2)cn1 | yes
CC(=O)C(C(C)=O)c1nc2sc3cc(Cl)ccc3n2c(=N)c1C#N | no
N#Cc1cnn2c(-c3ccc(Cl)cc3)nc(NCCc3ccccc3)nc12 | no
COc1c(C)cnc(CSc2nc(-c3ccc(C)cc3)cn2-c2ccc(Cl)cc2)c1C | no
COc1cccc(/C=C2\COc3ccc(O)cc3C2=O)c1OC | yes

(Q) Name the outcome recorded for COc1ccc(/C=C2\C=C(c3ccccc3)N(CCc3ccccc3)C2=O)cc1OC in the assay.
(A) no

(Q) Name the outcome recorded for CCO/C=N/C1=C(C#N)C(c2ccc(OC)cc2)c2c(c3ccccc3n(C)c2=O)O1 (stereo not given) in the assay.
(A) no

(Q) Name the outcome recorded for NS(=O)(=O)c1cnccc1-n1ccc(=O)c(S(N)(=O)=O)c1 in the assay.
(A) no

(Q) Name the outcome recorded for CCCCCCNc1cc(C)nc2ccc(OC)cc12 in the assay.
(A) no

(Q) Name the outcome recorded for CC(=O)Nc1cccc(C2=CC(c3ccc(C)cc3)n3ncnc3N2)c1 (stereo not given) in the assay.
(A) no

(Q) Name the outcome recorded for CN(C)c1ccc2cc(-c3ccccc3F)c(N)nc2c1 in the assay.
(A) no

(Q) Name the outcome recorded for COc1ccc(-c2nc3ccccn3c2/C=C/C(=O)c2cc(OC)c(OC)c(OC)c2)cc1 in the assay.
(A) no

(Q) Name the outcome recorded for O=C1NN(C(=O)c2ccc(O)cc2)C(c2ccccc2)=N/C1=C\c1cn(-c2ccccc2)nc1-c1ccccc1 in the assay.
(A) no

(Q) Name the outcome recorded for CN(C)c1ccc(C#Cc2c(F)cccc2Cl)cc1 in the assay.
(A) no

(Q) Name the outcome recorded for Cn1ccnc1C(=O)/C=C/c1ccc(C(=O)Nc2ccc(S(F)(F)(F)(F)F)cc2)cc1 in the assay.
(A) no
